method.summary: In vitro binding affinity for Alpha-2a adrenergic receptor
experimental.readout: pKi
pKi (log units): -log10 of the concentration in mol/L.

Worked cases, answers included:
Oc1nc2c(Cl)cc3c(c2[nH]1)[C@H]1c2ccccc2CC[C@@H]1NCC3 :: 6.14
Oc1nc2c(Cl)cc3c(c2s1)[C@H]1c2ccccc2CC[C@@H]1NCC3 :: 4.84
CN1CCc2cc(Cl)c(O)cc2[C@@H](c2ccccc2)C1 :: 7.13
CN1CCc2cc(Cl)c3[nH]ncc3c2[C@@H](c2ccccc2)C1 :: 6.81

Next:
Query block: For CN1CCc2cc(Cl)c(O)cc2[C@H]2c3ccccc3CC[C@@H]21 , what is its reported pKi?
Result block: 6.14
